assay: NCI Yeast Anticancer Drug Screen. Data for the mec2-1 strain (AID 157); settings: S. cerevisiae mec2-1 strain, at 50.0 µM
About 79,000 compounds went through this panel and 15% of them were active in at least one assay; those are over-represented in the sample as a whole. The source made the active and inactive calls. Cut-off read from the data, not from the text of the source: active = growth inhibition above about 70%; inactive = the rest.
Your reply should match one of these outcome classes. active, inactive

Some solved cases for reference:
INSERT INTO assay_data (compound, classification) VALUES
  ('OC1CCCC[CH]1[Hg][Cl] (stereo not given)', 'active'),
  ('CCC[CH2][Sn]1([CH2]CCC)[O]N=Cc2ccccc2[O]1', 'active'),
  ('CC1(C)CC(=O)C([Se]C2=C(O)CC(C)(C)CC2=O)=C(O)C1', 'active'),
  ('CC1CCC2(NC1)OC1CC3C4CCC5CC(OC6OC(CO)C(OC7OC(CO)C(O)C(OC8OCC(O)C(O)C8O)C7OC7OC(CO)C(O)C(O)C7O)C(O)C6O)CCC5(C)C4CCC3(C)C1C2C (stereo not given)', 'inactive'),
  ('Cn1cc(/C=C/[N+](=O)[O-])c2ccccc21', 'active');

Query: Assay result, entry `CC#N.FC(F)(F)C#CC(F)(F)F.FC(F)(F)C#CC(F)(F)F.FC(F)(F)C#CC(F)(F)F.[W]` — outcome?
Response: active

Query: Assay result, entry `CCN(CCCl)CCCCNc1c2ccccc2nc2ccc(OC)cc12` — outcome?
Response: active

Query: Assay result, entry `O=C1C(=O)c2ccccc2-c2ccccc21.O=C1C(=O)c2ccccc2-c2ccccc21.[Hg]` — outcome?
Response: inactive

Query: Assay result, entry O=C1C2CC(Cl)C(SSC3CC4C(=O)N(SC(Cl)(Cl)C(Cl)Cl)C(=O)C4CC3Cl)CC2C(=O)N1SC(Cl)(Cl)C(Cl)Cl (stereo not given) — outcome?
Response: active

Query: Assay result, entry `c1ccc([Te][Te]c2ccccc2)cc1` — outcome?
Response: inactive
